Test system: SNB-19 CNS
test_method_notes: NCI tumour cell line growth inhibition, 48 h; in the data active means GI50 below about 0.43 µM; inactive means the rest
Lab note: assign the record to one of active, inactive

{"molecule": "CCC[CH2][Sn]1([CH2]CCC)[O]C(=O)c2ccc(C)cc2[O]1", "class": "active"}
{"molecule": "CC1=C([Te]c2ccc(O)cc2)C(=O)c2ccccc2C1=O", "class": "inactive"}
{"molecule": "COc1ccc(-c2nc(N3CCN(C(=O)C4CCCCC4)CC3)c3c4c(sc3n2)CCCC4)cc1", "class": "inactive"}

For "O=C(Nc1nc2ccc(F)cc2s1)c1cccnc1Nc1ccc(Cl)cc1" , which call appears in the assay record?
inactive

For "CC(=O)[C@@]1(O)[C@H](C)C[C@H]2[C@@H]3C=C(C)C4=Cc5c(cnn5-c5ccccc5)C[C@]4(C)[C@H]3[C@@H](O)C[C@@]21C" , which call appears in the assay record?
inactive

For C/C(=C\COc1c2c(cc3c1CCO3)OC1(C=C2)OC(CC/C(C)=C/COc2c3ccoc3cc3oc(=O)ccc23)C(C)(C)O1)CCC(O)C(C)(C)O (stereo not drawn) , which call appears in the assay record?
inactive

For "C[C@H](CCCNCCCNCCCN)[C@H]1CC[C@H]2[C@@H]3[C@H](OCCCN)C[C@H]4C[C@H](OCCCN)CC[C@]4(C)[C@H]3C[C@H](OCCCN)[C@]12C" , which call appears in the assay record?
inactive

For "COc1ccc(-c2cc(-c3ccc(O)cc3)nc3n[nH]c(N)c23)cc1" , which call appears in the assay record?
inactive
